Cited source: the supplement of paper PMC6555819

Test system: RARb homodimer (NR concentration 270 nM)
Experiment: PBM binding z-score (relative to random genomic background probes); higher = stronger binding; sequences stand for … in GC…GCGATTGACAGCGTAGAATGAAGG
Observation Type: PBM binding z-score

[
  {
    "Entry Sequence": "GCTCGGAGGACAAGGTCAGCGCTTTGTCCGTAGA",
    "Observation Type": "PBM binding z-score",
    "Readout Number": 3.72
  },
  {
    "Entry Sequence": "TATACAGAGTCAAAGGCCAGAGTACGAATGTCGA",
    "Observation Type": "PBM binding z-score",
    "Readout Number": 0.843
  },
  {
    "Entry Sequence": "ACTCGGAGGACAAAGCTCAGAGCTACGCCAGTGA",
    "Observation Type": "PBM binding z-score",
    "Readout Number": -0.345
  },
  {
    "Entry Sequence": "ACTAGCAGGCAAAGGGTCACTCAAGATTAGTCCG",
    "Observation Type": "PBM binding z-score",
    "Readout Number": 3.87
  },
  {
    "Entry Sequence": "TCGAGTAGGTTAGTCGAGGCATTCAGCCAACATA",
    "Observation Type": "PBM binding z-score",
    "Readout Number": -0.449
  },
  {
    "Entry Sequence": "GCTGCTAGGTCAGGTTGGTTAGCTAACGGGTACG",
    "Observation Type": "PBM binding z-score",
    "Readout Number": 2.43
  }
]
